The origin of these recorded values is the supplement of paper PMC10307832.

# Test system: NCI-H1944
# measurementNotes: relative viability (nuclei count vs DMSO), 5 days (fraction); higher = more cells survive
# conditionInfo: first compound 50 µM
Please note: relative viability exactly at 0.5 is no (0). Only values below 0.5 get yes (1).

Answered examples (5):
| compound | groupLabel |
| --- | --- |
| O=C(O)CCCCC(CCSCc1ccccc1)SCc1ccccc1 (configuration not stated) [CPI-613] + COc1cccc2cc(-c3nc([C@H]4CC[C@H](C(=O)O)CC4)n4ncnc(N)c34)[nH]c12 [OSI-027] (partner 0.5 µM) | yes (1) |
| O=C(O)CCCCC(CCSCc1ccccc1)SCc1ccccc1 (configuration not stated) [CPI-613] + Nc1nc2[nH]cc(CCc3ccc(C(=O)N[C@@H](CCC(=O)O)C(=O)O)cc3)c2c(=O)[nH]1 [Pemetrexed] (partner 0.2 µM) | no (0) |
| O=C(O)CCCCC(CCSCc1ccccc1)SCc1ccccc1 (configuration not stated) [CPI-613] + CC(=O)c1c(C)c2cnc(Nc3ccc(N4CCNCC4)cn3)nc2n(C2CCCC2)c1=O [Palbociclib] (partner 0.5 µM) | yes (1) |
| O=C(O)CCCCC(CCSCc1ccccc1)SCc1ccccc1 (configuration not stated) [CPI-613] + COc1cc2c(Oc3ccc(NC(=O)C4(C(=O)Nc5ccc(F)cc5)CC4)cc3F)ccnc2cc1OCCCN1CCOCC1 [Foretinib] (partner 0.25 µM) | no (0) |
| O=C(O)CCCCC(CCSCc1ccccc1)SCc1ccccc1 (configuration not stated) [CPI-613] + NC(=O)Nc1cc(-c2cccc(F)c2)sc1C(=O)N[C@H]1CCCNC1 [AZD7762] (partner 0.2 µM) | yes (1) |

Kindly review the next compound as well.
Incoming: A record lists O=C(O)CCCCC(CCSCc1ccccc1)SCc1ccccc1 (configuration not stated) [CPI-613] + Cc1nc(NC(=O)N2CCC[C@H]2C(N)=O)sc1-c1ccnc(C(C)(C)C(F)(F)F)c1 [Alpelisib] (partner 2 µM) . Is its relative viability below 0.5?
Outgoing: no (0)
